# Test system: Veronica persica (VERPE)
# testDetails: Post-emergence herbicidal action, greenhouse pot test
# Type: in vivo
# assayContext: 1.25 g/ha
resultType: Post-emergence effect at 1.25 g/ha against VERPE in % (%)
Numbers only, in %.

Some molecules with recorded Post-emergence effect at 1.25 g/ha against VERPE in %:
Cn1c(C(F)(F)F)cc(=O)n(-c2cc(Oc3ccccc3OCC(=O)OCC3CCCCC3)c(Cl)cc2F)c1=O    100
Cn1c(C(F)(F)F)cc(=O)n(-c2cc(Oc3ccccc3OCC(=O)OCC3(C#N)CC3)c(Cl)cc2F)c1=O    100
Cn1c(C(F)(F)F)cc(=O)n(-c2cc(Oc3ccccc3OCC(=O)OCC3CCCC3)c(Cl)cc2F)c1=O    90
CC(OC(=O)COc1ccccc1Oc1cc(-n2c(=O)cc(C(F)(F)F)n(C)c2=O)c(F)cc1Cl)C1CC1 (stereo not shown)    100
Cn1c(C(F)(F)F)cc(=O)n(-c2cc(Oc3ccccc3OCC(=O)OCC3CC34CCC4)c(Cl)cc2F)c1=O (stereo not shown)    90

Working through the 4 molecules below one at a time, give Post-emergence effect at 1.25 g/ha against VERPE in % for each.
1. Cn1c(C(F)(F)F)cc(=O)n(-c2cc(Oc3ccccc3OCC(=O)OCC3CC3)c(Cl)cc2F)c1=O
2. Cn1c(C(F)(F)F)cc(=O)n(-c2cc(Oc3ccccc3OCC(=O)OCC3(F)CC3)c(Cl)cc2F)c1=O
3. Cn1c(C(F)(F)F)cc(=O)n(-c2cc(Oc3ccccc3OCC(=O)OCC3CC3(F)F)c(Cl)cc2F)c1=O (stereo not shown)
4. Cn1c(C(F)(F)F)cc(=O)n(-c2cc(Oc3ccccc3OCC(=O)OCC3CCCCCC3)c(Cl)cc2F)c1=O

Found:
[100, 100, 100, 80]

Hi, could you look up Post-emergence effect at 1.25 g/ha against VERPE in % for each item in my list?
1. Cn1c(C(F)(F)F)cc(=O)n(-c2cc(Oc3ccccc3OCC(=O)OCC3CC3(C)C)c(Cl)cc2F)c1=O (stereo not shown)
2. Cn1c(C(F)(F)F)cc(=O)n(-c2cc(Oc3ccccc3OCC(=O)OCC3CC34CC4)c(Cl)cc2F)c1=O (stereo not shown)
3. CC(OC(=O)COc1ccccc1Oc1cc(-n2c(=O)cc(C(F)(F)F)n(C)c2=O)c(F)cc1Cl)C1CCCCC1 (stereo not shown)

Found:
[90, 80, 80]

Below are 4 molecules. Give each one its Post-emergence effect at 1.25 g/ha against VERPE in %.
1. Cn1c(C(F)(F)F)cc(=O)n(-c2cc(Oc3ccccc3OCC(=O)OCC3(C)CC3)c(Cl)cc2F)c1=O
2. Cn1c(C(F)(F)F)cc(=O)n(-c2cc(Oc3ccccc3OCC(=O)OC(C#N)C3CC3)c(Cl)cc2F)c1=O (stereo not shown)
3. Cn1c(C(F)(F)F)cc(=O)n(-c2cc(Oc3ccccc3OCC(=O)OCC3CCC3)c(Cl)cc2F)c1=O
4. CC(OC(=O)COc1ccccc1Oc1cc(-n2c(=O)cc(C(F)(F)F)n(C)c2=O)c(F)cc1Cl)C1CCCC1 (stereo not shown)

Found:
100
100
100
100

---

I'd appreciate it if you could supply Post-emergence effect at 20 g/ha against KCHSC in % values for the items below.
# System: Bassia scoparia (KCHSC)
# testDetails: Post-emergence herbicidal action, greenhouse pot test
# Assay type: in vivo
# assayContext: 20 g/ha
Answers are plain numbers, in %.

Some entries whose results are on file:
Cn1c(C(F)(F)F)cc(=O)n(-c2cc(Oc3ccccc3OCC(=O)OCC3(C)CC3)c(Cl)cc2F)c1=O [I.7-5]    100
Cn1c(C(F)(F)F)cc(=O)n(-c2cc(Oc3ccccc3OCC(=O)OCC3(F)CC3)c(Cl)cc2F)c1=O [I.7-6]    100
Cn1c(C(F)(F)F)cc(=O)n(-c2cc(Oc3ccccc3OCC(=O)OCC3(C#N)CC3)c(Cl)cc2F)c1=O [I.7-7]    100
CC(OC(=O)COc1ccccc1Oc1cc(-n2c(=O)cc(C(F)(F)F)n(C)c2=O)c(F)cc1Cl)C1CC1 (centres unmarked) [I.7-2]    100
CC(OC(=O)COc1ccccc1Oc1cc(-n2c(=O)cc(C(F)(F)F)n(C)c2=O)c(F)cc1Cl)C1CCCCC1 (centres unmarked) [I.7-15]    100
CC(OC(=O)COc1ccccc1Oc1cc(-n2c(=O)cc(C(F)(F)F)n(C)c2=O)c(F)cc1Cl)C1CCCC1 (centres unmarked) [I.7-13]    100

Dear reader, for each entry below, please note its Post-emergence effect at 20 g/ha against KCHSC in %.
1. Cn1c(C(F)(F)F)cc(=O)n(-c2cc(Oc3ccccc3OCC(=O)OCC3CCCCCC3)c(Cl)cc2F)c1=O [I.7-16]
2. Cn1c(C(F)(F)F)cc(=O)n(-c2cc(Oc3cc(F)ccc3OCC(=O)OCC3CC3)c(Br)cc2F)c1=O [I.24-1]

Found:
100
100

---

For each of the compounds below, state its Post-emergence effect at 1.25 g/ha against ECHCG in %.
# Tested on: Echinochloa crus-galli (ECHCG)
# testDetails: Post-emergence herbicidal action, greenhouse pot test
# Type: in vivo
# assayContext: 1.25 g/ha
Answers are plain numbers, in %.

Sample records with Post-emergence effect at 1.25 g/ha against ECHCG in %:
Cn1c(C(F)(F)F)cc(=O)n(-c2cc(Oc3ccccc3OCC(=O)OCC3CCC3)c(Cl)cc2F)c1=O [I.7-10]    100
Cn1c(C(F)(F)F)cc(=O)n(-c2cc(Oc3ccccc3OCC(=O)OCC3CC3(C)C)c(Cl)cc2F)c1=O (stereo not shown) [I.7-9]    80
Cn1c(C(F)(F)F)cc(=O)n(-c2cc(Oc3ccccc3OCC(=O)OCC3CC3)c(C#N)cc2F)c1=O [I.9-1]    80
Cn1c(C(F)(F)F)cc(=O)n(-c2cc(Oc3ccccc3OCC(=O)OCC3CCCCC3)c(Cl)cc2F)c1=O [I.7-14]    90
Cn1c(C(F)(F)F)cc(=O)n(-c2cc(Oc3ccccc3OCC(=O)OCC3CC3)c(Cl)cc2F)c1=O [I.7-1]    100

# batch: return Post-emergence effect at 1.25 g/ha against ECHCG in % for each of the 2 compounds below
1. CC(OC(=O)COc1ccccc1Oc1cc(-n2c(=O)cc(C(F)(F)F)n(C)c2=O)c(F)cc1Cl)C1CCCC1 (stereo not shown) [I.7-13]
2. Cn1c(C(F)(F)F)cc(=O)n(-c2cc(Oc3ccccc3OCC(=O)OCC3CCCCCC3)c(Cl)cc2F)c1=O [I.7-16]

Found:
1. 80
2. 100

---

I'd be grateful if you could share measured Post-emergence effect at 1.25 g/ha against TRZAS in % for these entries.
# System: Triticum aestivum (TRZAS)
# testDetails: Post-emergence crop plant compatibility, greenhouse pot test
# Type: in vivo
# assayContext: crop plant, post-emergence, 1.25 g/ha
Give bare numbers, in %.

Example cases with answers are listed next.
Cn1c(C(F)(F)F)cc(=O)n(-c2cc(Oc3ccccc3OCC(=O)OCC3CC3(C)C)c(Cl)cc2F)c1=O (stereo not shown)    20
CC(OC(=O)COc1ccccc1Oc1cc(-n2c(=O)cc(C(F)(F)F)n(C)c2=O)c(F)cc1Cl)C1CCCCC1 (stereo not shown)    20
Cn1c(C(F)(F)F)cc(=O)n(-c2cc(Oc3ccccc3OCC(=O)OC(C#N)C3CC3)c(Cl)cc2F)c1=O (stereo not shown)    20
Cn1c(C(F)(F)F)cc(=O)n(-c2cc(Oc3ccccc3OCC(=O)OCC3CC3)c(Cl)cc2F)c1=O    0
Cn1c(C(F)(F)F)cc(=O)n(-c2cc(Oc3ccccc3OCC(=O)OCC3(F)CC3)c(Cl)cc2F)c1=O    20
CC(OC(=O)COc1ccccc1Oc1cc(-n2c(=O)cc(C(F)(F)F)n(C)c2=O)c(F)cc1Cl)C1CCCC1 (stereo not shown)    20

Lookup: Any idea what its Post-emergence effect at 1.25 g/ha against TRZAS in % is? The compound is Cn1c(C(F)(F)F)cc(=O)n(-c2cc(Oc3ccccc3OCC(=O)OCC3CC34CCC4)c(Cl)cc2F)c1=O (stereo not shown)
Found: 10

---

# System: Tripleurospermum inodorum (MATIN)
# testDetails: Post-emergence herbicidal action, greenhouse pot test
# Format: in vivo
# assayContext: 5 g/ha
resultType: Post-emergence effect at 5 g/ha against MATIN in % (%)
Give bare numbers, in %.

Cn1c(C(F)(F)F)cc(=O)n(-c2cc(Oc3ccccc3OCC(=O)OCC3CC3)c(C#N)cc2F)c1=O [I.9-1]    80
Cn1c(C(F)(F)F)cc(=O)n(-c2cc(Oc3ccccc3OCC(=O)OC(C#N)C3CC3)c(Cl)cc2F)c1=O (stereo not drawn) [I.7-4]    100
Cn1c(C(F)(F)F)cc(=O)n(-c2cc(Oc3ccccc3OCC(=O)OCC3(C)CC3)c(Cl)cc2F)c1=O [I.7-5]    100
Cn1c(C(F)(F)F)cc(=O)n(-c2cc(Oc3ccccc3OCC(=O)OCC3CC3)c(Cl)cc2F)c1=O [I.7-1]    100
Cn1c(C(F)(F)F)cc(=O)n(-c2cc(Oc3ccccc3OCC(=O)OCC3(C#N)CC3)c(Cl)cc2F)c1=O [I.7-7]    100

// moving on: another record for Post-emergence effect at 5 g/ha against MATIN in %
Lookup: Query: Post-emergence effect at 5 g/ha against MATIN in %; subject: Cn1c(C(F)(F)F)cc(=O)n(-c2cc(Oc3ccccc3OCC(=O)OCC3CC3(F)F)c(Cl)cc2F)c1=O (stereo not drawn) [I.7-8]
Found: 100
